// provenance: the METLIN SMRT retention time set (Domingo-Almenara et al. 2019)

# RP-LC retention time listing for each entry below
# test-summary: gradient 5% acetonitrile 3 min, to 50% in 2 min, to 85% in 15 min, held 3 min, 100 µL/min
# condition-summary: column: Zorbax Extend-C18 2.1 x 50 mm; eluents: water / acetonitrile, 0.1% formic acid
measured-endpoint: RP-LC retention time (s)

compound	measured-endpoint	reported-result
Cn1cc(C(=O)N2CCN(C3CCCCC3)CC2)c2cccnc21	RP-LC retention time	632
O=C(CSc1n[nH]c(-c2ccc(F)cc2)n1)Nc1ccc(F)cc1F	RP-LC retention time	853
O=C(NCCC1=CCCCC1)c1csc(Nc2ncccn2)n1	RP-LC retention time	797
CCc1n[nH]c(CC2CCN(C(=O)C3(c4ccccc4)CC3)CC2)n1	RP-LC retention time	608
COc1ccc(Cl)cc1NC(=O)NCCC1CCN(S(=O)(=O)c2ccc(F)cc2)CC1	RP-LC retention time	1030
Cc1ccc(-n2c(=O)c3sccc3n(Cc3nc(-c4ccc(C(F)(F)F)cc4)no3)c2=O)cc1	RP-LC retention time	1190
Cc1ccc(-c2noc(CSc3nc4cc5c(cc4c(=O)n3Cc3ccncc3)OCO5)n2)cc1	RP-LC retention time	845
CC1CCN(C(=O)C2c3ccccc3CCN2CC(=O)NCc2cccc(Cl)c2)CC1 (stereo not drawn)	RP-LC retention time	973
CN1CCN(CCNC(=O)C2CCN(c3nc4cccnc4s3)CC2)CC1	RP-LC retention time	555
COc1cc(NC(=O)Cc2csc3nc(-c4cccc(Br)c4)cn23)cc(OC)c1	RP-LC retention time	974
COC(=O)c1cccc(C(=O)Nc2ccc(C)c(C)c2)n1	RP-LC retention time	910
Cn1cc(C(=O)Nc2ccc3c(c2)CCC3)c(S(=O)(=O)N2CCSCC2)n1	RP-LC retention time	1040
Cc1ccc(CNC(=O)c2nc3cccnc3n(CC(C)C)c2=O)cc1C	RP-LC retention time	1010
CCOC(=O)c1c(C)oc2nc(C)nc(N3CCN(Cc4ccccc4)CC3)c12	RP-LC retention time	583
CCOc1ccc(NC(=O)c2cc(=O)c3cc(Cl)ccc3o2)c2cccnc12	RP-LC retention time	665
CN1C(=O)c2cccnc2Sc2cc(NC(=O)c3ccccc3F)ccc21	RP-LC retention time	758
COc1ccc(-c2nnc(SCc3cc(=O)n4c(C)csc4n3)o2)cc1	RP-LC retention time	831
CCn1ccc(C(=O)N2CCC3(CC2)c2nccn2-c2ccccc2CN3CC(C)C)n1	RP-LC retention time	599
C[C@@H]1C(=O)O[C@H]2C[C@@]34C5C[C@@H](C(C)(C)C)[C@]36[C@H](OC(=O)[C@@H]6O)OC4(C(=O)O5)[C@]21O (stereo partly drawn)	RP-LC retention time	709
O=C(NC1CC1)[C@@H]1C[C@H](Oc2ccccc2)CN1C(=O)C1CCC1	RP-LC retention time	735
O=C(c1ccc2ccnc(N3CCN(c4ccccc4)CC3)c2c1)N1CCN(C2CCCCC2)CC1	RP-LC retention time	625
O=C1CCCN1CCCN1C(=O)[C@H]2CN(Cc3cccc(Cl)c3)C[C@H]2C1=O	RP-LC retention time	628
Cc1ccc2nc(C3CN(C(=O)COc4ccc(Cl)cc4Cl)C3)[nH]c2c1	RP-LC retention time	610
CC(C)(C)OC(=O)NC1[C@H]2CNC[C@@H]12 (stereo partly drawn)	RP-LC retention time	609
CCCN1C(=O)COc2ccc(-c3noc(-c4ccc(C#N)cc4)n3)cc21	RP-LC retention time	1130
CCc1nc2cc(-c3noc(-c4ccsc4)n3)ccc2o1	RP-LC retention time	1100
CCc1ccc(-c2nc(C3CC(=O)N(c4ccc(C)cc4)C3)no2)cc1 (stereo not drawn)	RP-LC retention time	1110
CCCN1C(=O)CCc2cc(NS(=O)(=O)c3ccccc3C(F)(F)F)ccc21	RP-LC retention time	860
Cc1ccc(-c2nnc(-c3nc(NCc4ccco4)c4ccccc4n3)o2)cc1	RP-LC retention time	995
O=C(NCc1ccccc1C(F)(F)F)C1CCCN(c2nccnc2Sc2ccccc2)C1 (stereo not drawn)	RP-LC retention time	1110
CC(C)c1nc(-c2ccc(C(=O)N3CCN(c4nc5cccnc5o4)CC3)cc2)no1	RP-LC retention time	828
CS(=O)(=O)c1ccc([C@@H](O)[C@@H](CF)NC(=O)C(Cl)Cl)cc1	RP-LC retention time	723
COc1cc(F)ccc1-c1ccnc2nc(-c3cccs3)nn12	RP-LC retention time	918
O=C(Cn1cnc2nc(N3CCC(C(=O)NC4CC4)CC3)sc2c1=O)Nc1cc(F)cc(F)c1	RP-LC retention time	694
CCn1ccc2sc(C)c(C(=O)NCc3cccc(Br)c3)c2c1=O	RP-LC retention time	918
COc1ccc(NS(=O)(=O)c2cn(CC(C)C)c3ncccc23)cc1F	RP-LC retention time	896
O=C(NCC(O)(c1ccccc1)C(F)(F)F)c1cccs1 (stereo not drawn)	RP-LC retention time	815
COc1ccc(-n2ncc3c(=O)n(Cc4nc(-c5ccc(C)c(C)c5)no4)cnc32)cc1	RP-LC retention time	1080
